Kindly supply the reported IC50 values for the records listed here.
Target: Jack bean urease (Canavalia ensiformis, UniProt P07374)
Construct: purchased Sigma-Aldrich
Sequence (P07374 whole entry, looked up): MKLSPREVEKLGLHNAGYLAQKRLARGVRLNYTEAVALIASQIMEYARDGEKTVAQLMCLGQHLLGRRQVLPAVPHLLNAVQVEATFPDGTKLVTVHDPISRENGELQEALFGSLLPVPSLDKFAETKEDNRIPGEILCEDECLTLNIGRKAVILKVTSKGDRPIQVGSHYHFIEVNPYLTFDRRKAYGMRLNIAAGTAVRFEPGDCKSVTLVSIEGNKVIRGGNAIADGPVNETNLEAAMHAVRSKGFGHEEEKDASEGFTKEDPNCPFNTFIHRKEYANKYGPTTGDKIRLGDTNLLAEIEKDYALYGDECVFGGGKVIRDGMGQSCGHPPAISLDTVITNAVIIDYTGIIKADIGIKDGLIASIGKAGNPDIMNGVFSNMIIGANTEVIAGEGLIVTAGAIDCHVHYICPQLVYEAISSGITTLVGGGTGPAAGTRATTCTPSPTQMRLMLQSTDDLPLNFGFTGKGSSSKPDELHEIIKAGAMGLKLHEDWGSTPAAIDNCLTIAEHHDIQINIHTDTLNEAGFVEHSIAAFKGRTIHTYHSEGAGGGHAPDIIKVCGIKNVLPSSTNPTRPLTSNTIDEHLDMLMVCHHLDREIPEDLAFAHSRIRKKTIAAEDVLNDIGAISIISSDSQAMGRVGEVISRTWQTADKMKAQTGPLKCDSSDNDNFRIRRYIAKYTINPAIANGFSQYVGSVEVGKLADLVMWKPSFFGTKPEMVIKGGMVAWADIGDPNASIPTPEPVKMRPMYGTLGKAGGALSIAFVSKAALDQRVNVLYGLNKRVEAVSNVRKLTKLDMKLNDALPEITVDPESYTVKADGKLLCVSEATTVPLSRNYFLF
Test: biochemical
Assay type: biochemical
Value expressed in µM; do not type the unit.

Input: Recorded IC50 for Cc1ccc(C(C)C)c(O)c1 [Thymol] , please?
Output: 1330

Input: Recorded IC50 for O=C(/C=C/c1ccc(O)cc1)OC[C@H]1O[C@@H](Oc2c(-c3ccc(O)cc3)oc3cc(O)cc(O)c3c2=O)[C@H](O)[C@@H](O)[C@@H]1O [Tiliroside] , please?
Output: 450

Input: Recorded IC50 for Cc1ccc(C(C)C)cc1O [Carvacrol] , please?
Output: 700
